Study conditions: in water, 315.15 K
Measured metric: solubility (mole fraction)
Number, no unit, nothing else.

Tell me its solubility (mole fraction) given C=CCC as the entry.
4.9e-05

====

Study conditions: in water, 305.15 K
Measured metric: solubility (mole fraction)
Number, no unit, nothing else.

Tell me its solubility (mole fraction) given C=CCC as the entry.
6.42e-05

====

Study conditions: in water, 298.15 K
Measured metric: solubility (mole fraction)
Number, no unit, nothing else.

Tell me its solubility (mole fraction) given C=CCC as the entry.
7.97e-05

Hey, just so you know, these numbers are from BigSolDB 2.1.
